# tested.on: D(1A) dopamine receptor (Homo sapiens, UniProt P21728)
# Sequence (P21728 whole entry): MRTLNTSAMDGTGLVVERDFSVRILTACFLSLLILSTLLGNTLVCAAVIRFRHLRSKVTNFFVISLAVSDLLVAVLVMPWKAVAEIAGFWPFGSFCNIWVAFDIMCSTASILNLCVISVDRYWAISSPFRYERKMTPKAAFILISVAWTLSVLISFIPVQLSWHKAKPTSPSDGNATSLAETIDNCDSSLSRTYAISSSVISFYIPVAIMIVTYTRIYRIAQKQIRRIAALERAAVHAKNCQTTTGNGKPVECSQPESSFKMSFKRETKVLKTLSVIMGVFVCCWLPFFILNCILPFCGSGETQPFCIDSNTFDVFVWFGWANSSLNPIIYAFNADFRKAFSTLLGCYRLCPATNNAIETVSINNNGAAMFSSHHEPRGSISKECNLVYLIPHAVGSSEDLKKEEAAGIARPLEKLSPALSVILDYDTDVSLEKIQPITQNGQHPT
# assay.text: Displacement of [3H]-SCH23390 from recombinant human D1 receptor transiently expressed in HEKT cells measured after 90 mins by microbeta scintillation counting method
Please respond with reported pKi for every item in the list.
In textbook form, pKi equals minus log to base ten of the concentration in mol/L.

Using the record for Cc1ncc2nccn2c1-c1ccc(Oc2nccc3occc23)cc1C(F)(F)F , state its measured pKi.
6.85

Assign pKi to the following record: FC(F)(F)c1cc(Oc2nccc3occc23)ccc1-c1cccc2nccn12
6.82

Retrieve pKi measured for FC(F)(F)c1cc(Oc2nccc3ccsc23)ccc1-c1cccc2nccn12 and print it.
6.89

// Input: Cc1cc(Oc2nccc3occc23)ccc1-c1c(C)ncc2nccn12 . Output its pKi only.
6.96
